Where these numbers come from: patent US5968817A

Target: MR77 serotonin receptor (5-HT1E-Like) (Rattus norvegicus, UniProt P30940)
Construct: expressed in transfected cells; host or cells: CosM6 (subclone of COS-7), transient, vector pCMV4
Sequence (P30940 1-366): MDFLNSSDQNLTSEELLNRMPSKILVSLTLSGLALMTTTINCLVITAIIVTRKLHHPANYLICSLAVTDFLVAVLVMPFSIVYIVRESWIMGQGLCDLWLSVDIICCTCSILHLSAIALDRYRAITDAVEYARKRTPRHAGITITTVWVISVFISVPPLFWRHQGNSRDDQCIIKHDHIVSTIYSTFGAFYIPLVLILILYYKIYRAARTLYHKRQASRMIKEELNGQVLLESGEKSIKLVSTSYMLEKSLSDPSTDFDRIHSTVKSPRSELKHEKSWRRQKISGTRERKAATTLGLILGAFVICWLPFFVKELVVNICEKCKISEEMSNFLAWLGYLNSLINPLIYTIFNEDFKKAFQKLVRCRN
Assay: [125I]-LSD competition binding to membranes of CosM6 cells expressing MR77
pIC50: −log10 of the molar value.
value kind: pIC50

molecule="CC[C@@H](CO)NC(=O)[C@@H]1C=C2c3cccc4c3c(cn4C)C[C@H]2N(C)C1 [Methysergide]" tested_target="MR77 serotonin receptor (5-HT1E-Like) (Rattus norvegicus, UniProt P30940)" value_kind=pIC50 val=7.85
molecule=CN1C[C@H](C(=O)N[C@]2(C)O[C@@]3(O)[C@@H]4CCCN4C(=O)[C@H](Cc4ccccc4)N3C2=O)C=C2c3cccc4[nH]cc(c34)C[C@H]21 tested_target="MR77 serotonin receptor (5-HT1E-Like) (Rattus norvegicus, UniProt P30940)" value_kind=pIC50 val=7.26
